# System: Botrtyis cinerea (Bc)
# assay-info: In vitro pathogen growth inhibition assay, Bc
# Format: cell-based
# run-parameters: 48 h, ≥90% growth inhibition; 48 hours; vs 2% DMSO control; read-out: Compound Concentration (ppm) sufficient for ≥90% inhibition of Bc
reported-endpoint: IC90 (µg/mL)
I only need the number, in µg/mL, no unit after it.

IC90 recorded for this compound, COc1ccc(F)cc1[C@H](Cn1c(=O)n(C(C)(C)C(=O)NC(C)C)c(=O)c2c(C)c(-n3cccn3)sc21)OC[C@H](C)C#N [Compound I-263] , is 0.4

IC90 recorded for this compound, COc1ccc(F)cc1[C@H](Cn1c(=O)n(C(C)(C)C(=O)NC(C)C)c(=O)c2c(C)c(-n3nccn3)sc21)OCCS(C)(=O)=O [Compound I-287] , is 2

IC90 recorded for this compound, CNC(=O)C(C)(C)n1c(=O)c2c(C)c(-n3nccn3)sc2n(C[C@H](OCCC#N)c2cc(F)ccc2OC)c1=O [Compound I-207] , is 2

IC90 recorded for this compound, COc1ccccc1[C@@H](O)Cn1c(=O)n(C(C)(C)C(=O)NC(C)C)c(=O)c2c(C)c(-n3nccn3)sc21 [Compound I-316] , is 0.4

IC90 recorded for this compound, Cc1c(-n2nccn2)sc2c1c(=O)n(C(C)(C)C(=O)NC(C)C)c(=O)n2C[C@H](OCCC#N)c1ccccc1O [Compound I-301] , is 10

IC90 recorded for this compound, COc1ccc(F)cc1[C@H](Cn1c(=O)n(C(C)(C)C(=O)NC(C)C)c(=O)c2c(C)c(-n3nccn3)sc21)OCCCO [Compound I-319] , is 50

----------
# System: Botrtyis cinerea (Bc)
# assay-info: In vitro pathogen growth inhibition assay, Bc
# Format: cell-based
# run-parameters: 48 h, ≥90% growth inhibition; 48 hours; vs 2% DMSO control; read-out: Compound Concentration (ppm) sufficient for ≥90% inhibition of Bc
reported-endpoint: IC90 (µg/mL)
I only need the number, in µg/mL, no unit after it.

IC90 recorded for this compound, COc1ccc(F)cc1[C@@H](O)Cn1c(=O)n(C(C)(C)C(=O)NC(C)C)c(=O)c2c(C)c(-n3cccn3)sc21 , is 2

IC90 recorded for this compound, CCc1ccc(F)cc1[C@H](Cn1c(=O)n(C(C)(C)C(=O)NC(C)C)c(=O)c2c(C)c(-n3nccn3)sc21)OCCOC , is 0.4

IC90 recorded for this compound, CCc1ccc(F)cc1CCn1c(=O)n(C(C)(C)C(=O)NC(C)C)c(=O)c2c(C)c(-n3nccn3)sc21 , is 2

IC90 recorded for this compound, COc1ccc(F)cc1[C@H](Cn1c(=O)n(C(C)(C)C(=O)NC(C)C)c(=O)c2c(C)c(-n3cccn3)sc21)OC[C@@H](C)C#N , is 0.4

IC90 recorded for this compound, Cc1c(-n2nccn2)sc2c1c(=O)n(C(C)(C)C(=O)NC(C)C)c(=O)n2C[C@H](OCC(C)(C)O)c1cc(F)ccc1OCC#N , is 2

IC90 recorded for this compound, COc1ccc(F)cc1[C@H](Cn1c(=O)n(C(C)(C)C(=O)NC(C)C)c(=O)c2c(C)c(CO)sc21)OCCC#N , is 50

IC90 recorded for this compound, Cc1c(-n2nccn2)sc2c1c(=O)n(C(C)(C)C(=O)NC(C)C)c(=O)n2C[C@H](OCCO)c1cc(F)ccc1O , is 10

IC90 recorded for this compound, CCOC(=O)c1sc2c(c1C)c(=O)n(C(C)(C)C(=O)N1CCCC1)c(=O)n2C[C@H](OCCO)c1cc(F)ccc1OC , is 2

IC90 recorded for this compound, Cc1ccc(F)cc1[C@H](Cn1c(=O)n(C(C)(C)C(=O)NC(C)C)c(=O)c2c(C)c(-n3nccn3)sc21)OCCO , is 0.4

IC90 recorded for this compound, CCNC(=O)[C@H](C)n1c(=O)c2c(C)c(C(=O)OCC)sc2n(C[C@H](OCCC#N)c2cc(F)ccc2OC)c1=O , is 0.4

IC90 recorded for this compound, COc1ccc(F)cc1[C@H](Cn1c(=O)n(C(C)(C)C(=O)N2CCCC2)c(=O)c2c(C)c(-n3cccn3)sc21)OCCC#N , is 10
